# TESTED_TARGET: T1, mature myostatin (recombinant, dimeric) (mouse polyprotein used for in-house …, UniProt O08689 268-376)
# T1 construct: also called GDF-8; recombinant myostatin
# T1 sequence: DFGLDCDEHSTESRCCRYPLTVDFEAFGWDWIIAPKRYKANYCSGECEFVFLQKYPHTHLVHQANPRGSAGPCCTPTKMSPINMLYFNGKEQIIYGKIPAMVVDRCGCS
# EXPERIMENT_DESCRIPTION: competition ELISA, biotinylated myostatin on streptavidin, competitor 10B3
VALUE_KIND: ranking order top (1) to bottom (5), myostatin competition ELISA
Format: numeric value only, no unit, no commentary.

**Q:** Query: ranking order top (1) to bottom (5), myostatin competition ELISA; subject: H2L2-C91S_V102S (antibody, human IgG1, kappa, name in Kabat numbering, V domains shown) VH: QVQLVQSGAEVKKPGASVKVSCKASGYSFTGYFMHWVRQAPGQGLEWMGNIYPYNGVSNYNQRFKARVTMTTDTSTSTAYMELRSLRSDDTAVYYCARRYYYGTGPADWYFDSWGQGTLVTVSS VL: DIQMTQSPSSLSASVGDRVTITCKASQDINSYLSWFQQKPGKAPKSLIYRANRLVDGVPSKFSGSGSGTDYTLTISSLQPEDFATYYCLQSDEFPLTFGQGTKLEIKR
**A:** 1

**Q:** Please give the result for H2L2-C91S_V102N (antibody, human IgG1, kappa, name in Kabat numbering, V domains shown) VH: QVQLVQSGAEVKKPGASVKVSCKASGYSFTGYFMHWVRQAPGQGLEWMGNIYPYNGVSNYNQRFKARVTMTTDTSTSTAYMELRSLRSDDTAVYYCARRYYYGTGPADWYFDNWGQGTLVTVSS VL: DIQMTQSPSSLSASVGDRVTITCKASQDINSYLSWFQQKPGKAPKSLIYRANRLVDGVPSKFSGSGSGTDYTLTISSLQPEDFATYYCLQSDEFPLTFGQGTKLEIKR too.
**A:** 4

**Q:** Please give the result for H2L2-C91S_Y96L (antibody, human IgG1, kappa, name in Kabat numbering, V domains shown) VH: QVQLVQSGAEVKKPGASVKVSCKASGYSFTGYFMHWVRQAPGQGLEWMGNIYPYNGVSNYNQRFKARVTMTTDTSTSTAYMELRSLRSDDTAVYYCARRLYYGTGPADWYFDVWGQGTLVTVSS VL: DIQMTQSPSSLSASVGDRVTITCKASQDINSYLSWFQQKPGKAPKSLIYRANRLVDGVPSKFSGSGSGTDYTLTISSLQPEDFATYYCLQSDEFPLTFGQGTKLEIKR too.
**A:** 5

**Q:** Please give the result for H2L2-C91S_P100B_I (antibody, human IgG1, kappa, V domains shown) VH: QVQLVQSGAEVKKPGASVKVSCKASGYSFTGYFMHWVRQAPGQGLEWMGNIYPYNGVSNYNQRFKARVTMTTDTSTSTAYMELRSLRSDDTAVYYCARRYYYGTGIADWYFDVWGQGTLVTVSS VL: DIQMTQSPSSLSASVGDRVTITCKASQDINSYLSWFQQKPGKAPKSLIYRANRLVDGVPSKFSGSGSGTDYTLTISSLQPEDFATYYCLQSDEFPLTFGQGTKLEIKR too.
**A:** 3
